Values from PubChem BioAssay (NCI)

tested on: SR leukemia; assay: NCI tumour cell line growth inhibition, 48 h; in the data active = GI50 below about 0.43 µM; inactive = the rest
I would appreciate it if you answered using one of these outcomes: active, inactive

COMPOUND	LABEL VALUE
CN(C)CCC(=O)NCc1c2nc3ccccc3nc2n2ccccc12	inactive

What classification did `COc1cc2c(cc1-c1c(C)noc1C)ncc1[nH]c(=O)n([C@H](C)c3ccccn3)c12` end up with in this test? active

Follow-up entry: CCC[CH2][Sn]1([CH2]CCC)[O]CC([CH2][Sn]([c]2ccccc2)([c]2ccccc2)[c]2ccccc2)[O]1 (stereo not given) inactive

Follow-up entry: `CCCCc1oc2ccccc2c1C(=O)c1cc(I)c(OCCN(CC)CC)c(I)c1` inactive

Follow-up entry: `NCCCn1c2c(c3ccc([N+](=O)[O-])cc3c1=O)C(=O)c1cc(Cl)ccc1-2` active

====

test system: SF-539 CNS; test: NCI tumour cell line growth inhibition, 48 h
Quick reference for TGI among some molecules

Please review the following examples before continuing.
MOLECULE	DATA VALUE
Oc1cccc2nc3cc(CN4CCOCC4)c(CN4CCOCC4)cc3nc12	> 100 µM
CCCCCC/C=C/CCCCCCCc1cccc(O)c1C(=O)O	> 100 µM
COC(=O)C1=C2CO[C@@H]3C[C@H]4C(C)(C)CCC[C@]4(C)C(=CC1)[C@]23C	> 100 µM
C[C@@H]1CCC2[C@@H](C)[C@H](OC(=O)CCC(=O)NCCNC(=O)Cc3cc(=O)oc4cc(N(C)C)ccc34)O[C@@H]3O[C@]4(C)CC[C@@H]1C23OO4 (some centres undefined)	24.3 µM
COc1cc(C(c2cc(OC)c(OC)c(OC)c2)N2C(=O)CCC2C(=O)O)cc(OC)c1OC (centres undefined)	> 100 µM
COC(=O)C(C(=O)C(=O)Nc1ccc(C)cc1C)c1nc2ccc([N+](=O)[O-])cc2[nH]c1=O (centres undefined)	> 100 µM

GET /values?readout=TGI&item= `C/C=C/COc1cc(NC(=S)c2ccoc2C)ccc1OC` > 100 µM

Follow-up entry: `COc1ccc(Cn2cc3c(c2-c2ccccc2)CCc2cncnc2-3)cc1` 18.7 µM

Follow-up entry: `CCOc1ccc(C(c2c(O)c3ccccc3oc2=O)c2c(O)c3ccccc3oc2=O)cc1` > 100 µM

====

test system: PC-3 prostate; experiment: NCI tumour cell line growth inhibition, 48 h
Where a SMILES comes first, the peptide text is derived from it. Side-chain parts run from the residue outwards. The star is where a group is joined. Cbz = O=C(OCc1ccccc1)*; Boc = CC(C)(C)OC(=O)*
PARAMETER: TGI

API: value(readout= TGI, system= PC-3 prostate, query= `Nc1nc(SCc2ccccc2[N+](=O)[O-])c2[nH]cnc2n1` ) > 100 µM

Follow-up entry: `CCOc1ccc(-n2c(=O)n3c(Nc4ccc(Cl)cc4)nc4c(c(=O)n(C)c(=O)n4C)n3c2=O)cc1` > 100 µM

Follow-up entry: OC1NC2CC3NC(O)C(O)NC3CC2NC1O (stereo not drawn) > 100 µM

Follow-up entry: COc1ccc2nc(C3=CN(C4OC(CO)C(O)C(O)C4O)C4C=CC=CC34)sc2c1 (stereo not drawn) > 100 µM

Follow-up entry: CC(C)CC(NC(=O)OCc1ccccc1)C(=O)NCCCCC(NC(=O)C(CCCCNC(=O)C(CC(C)C)NC(=O)OCc1ccccc1)NC(=O)C(CCCCNC(=O)C(CC(C)C)NC(=O)OCc1ccccc1)NC(=O)C(CCCCNC(=O)C(CC(C)C)NC(=O)OCc1ccccc1)NC(=O)OC(C)(C)C)C(=O)O (stereo not drawn) (Boc-K([Leu-Cbz])K([Leu-Cbz])K([Leu-Cbz])K([Leu-Cbz])-OH; configuration not given here) > 25 µM

Follow-up entry: `Nc1ccc(S(=O)(=O)c2ccc(N=[N+]([O-])c3ccc(S(=O)(=O)c4ccc(N)cc4)cc3)cc2)cc1` > 100 µM

Follow-up entry: `O=C1O[C@H](COC(=O)c2ccccc2)[C@@H](OC(=O)c2ccccc2)C=C1OC(=O)c1ccccc1` 62.7 µM

Follow-up entry: `COc1cc(OC)c(NC2=NCCO2)cc1Cl` 71.8 µM

Follow-up entry: O=C(O)C1C2CCC(C2)C1c1ccccc1 (stereo not drawn) > 100 µM

Follow-up entry: CC1(C)OCC(C2OC(=O)C(OCc3ccccc3)=C2OCc2ccccc2)O1 (stereo not drawn) 78.1 µM

Follow-up entry: `CC(C)(CO)NC(=O)c1cccc(C(=O)NC(C)(C)CO)c1Br` > 100 µM

Follow-up entry: CNC(=O)C(NC(=O)[C@H](CC(C)C)NC(=O)[C@@H](S)CCN1C(=O)N(C)C(C)(C)C1=O)C(C)(C)C (stereo partly drawn) > 100 µM

Follow-up entry: S=C1NC2=C(COC/C2=C\c2ccccc2Cl)C(c2ccccc2Cl)N1 (stereo not drawn) > 100 µM

Follow-up entry: `C=C(CN(CCN1CCOCC1)CC(=C)c1ccc(C(=O)Nc2ccccc2N)cc1)c1ccc(C(=O)Nc2ccccc2N)cc1` > 50 µM

Follow-up entry: CC1=NN(c2cccc(Cl)c2)C2(C1)SCC(=O)N2c1nc2ccccc2s1 (stereo not drawn) 65.1 µM

Follow-up entry: `CNc1nc(=O)c(C#N)c(-c2ccc(C)cc2)s1` > 100 µM

Follow-up entry: `c1cc(-c2cnn3nc(N4CCOCC4)ccc23)nc(NC2CC2)n1` > 25 µM

Follow-up entry: CCCCCCCCC[C@@H]1C[C@@H]2CCC3C(C(=O)OCCCCNC(=O)OCc4ccccc4)=C(C)NC(=N1)N32 (stereo partly drawn) 7.32 µM

Follow-up entry: `CCOC(=O)c1[nH]n(-c2ccccc2)c(=O)c1C=NC(=S)C(N)=S` > 100 µM

Follow-up entry: COc1cc(C(=O)OC2CC(C)=CC[C@@]3(C)CC[C@](O)(C(C)C)C23)ccc1O (stereo partly drawn) 31.9 µM

Follow-up entry: `Cc1ccc(-c2nc3n(c2/C=N\N=C(N)N)CCS3)cc1` 28.5 µM

Follow-up entry: `Cc1sc2c(c1C)C(c1ccc(Cl)cc1)=N[C@@H](CC(=O)Nc1ccc(O)cc1)c1nnc(C)n1-2` 23.1 µM

Follow-up entry: `C[n+]1c(-c2ccc(/C=N/Nc3n[nH]c(=S)n3N/N=C/c3ccc(-c4cn5ccccc5[n+]4C)cc3)cc2)cn2ccccc21` > 100 µM

Follow-up entry: `O=C(O)CCc1nc(-c2ccccc2)c(-c2ccccc2)o1` > 100 µM

Follow-up entry: `COc1ccc(CCN2CCOCC2)cc1` > 100 µM

====

tested on: 786-0 renal; assay: NCI tumour cell line growth inhibition, 48 h
Quick reference for TGI among some compounds

Please review the following examples before continuing.
COMPOUND	PARAMETER	DATA VALUE
COc1ccc2nc(C3=CN(C4OC(CO)C(O)C(O)C4O)C4C=CC=CC34)sc2c1 (centres undefined)	TGI	58.4 µM
COc1cc2c(cc1-c1c(C)noc1C)ncc1[nH]c(=O)n([C@H](C)c3ccccn3)c12	TGI	> 100 µM
COc1cc(C(=O)OC2CC(C)=CC[C@@]3(C)CC[C@](O)(C(C)C)C23)ccc1O (some centres undefined)	TGI	31.3 µM
CCCCCCCCCCCCCCCCCCNC(=S)/N=C/c1c(O)cc(C)oc1=O	TGI	> 100 µM
CC1(C)N=C(/C(C#N)=[N+](/[O-])C(=O)c2ccccc2)C(C)(C)N1O	TGI	> 100 µM

GET /values?readout=TGI&item= `CC(C)(CO)NC(=O)c1cccc(C(=O)NC(C)(C)CO)c1Br` > 100 µM

Follow-up entry: `CN(C)CCC(=O)NCc1c2nc3ccccc3nc2n2ccccc12` 45.9 µM

Follow-up entry: `C[n+]1ccc2[nH]c3ccccc3c2c1` > 100 µM

Follow-up entry: `Cc1cc(S(=O)(=O)Nc2nc3ccsc3c(=O)n2Cc2ccccc2)c(S)cc1Cl` > 100 µM

====

test system: KM12 colon; assay: NCI tumour cell line growth inhibition, 48 h; in the data active = GI50 below about 0.43 µM; inactive = the rest
I would appreciate it if you answered using one of these outcomes: active, inactive

COMPOUND	LABEL VALUE
ClC1=C(Cl)C(Cl)=C(Cl)C1=Cc1ccc(Cl)cc1Cl	inactive
CSc1ccc(C(=O)/C=C/c2ccc(F)cc2)cc1	inactive
CC(=O)[CH-]C(=O)c1ccccc1.CC(=O)[CH-]C(=O)c1ccccc1.CC[O-].O=C1C=C([O-])C(=O)c2ccccc21.[Ti+4]	inactive
C[C@@H]1CCC2[C@@H](C)[C@H](OC(=O)CCC(=O)NCCNC(=O)Cc3cc(=O)oc4cc(N(C)C)ccc34)O[C@@H]3O[C@]4(C)CC[C@@H]1C23OO4 (stereo not given in full)	inactive
CCCCc1oc2ccccc2c1C(=O)c1cc(I)c(OCCN(CC)CC)c(I)c1	inactive

What classification did `COc1cc2c(cc1-c1c(C)noc1C)ncc1[nH]c(=O)n([C@H](C)c3ccccn3)c12` end up with in this test? inactive

Follow-up entry: `CN1CCN(c2ccc([N+](=O)[O-])c3no[n+]([O-])c23)CC1` active

Follow-up entry: COc1ccc2nc(C3=CN(C4OC(CO)C(O)C(O)C4O)C4C=CC=CC34)sc2c1 (stereo not given) inactive

Follow-up entry: `c1cc(-c2cnn3nc(N4CCOCC4)ccc23)nc(NC2CC2)n1` inactive

Follow-up entry: `Cc1sc2c(c1C)C(c1ccc(Cl)cc1)=N[C@@H](CC(=O)Nc1ccc(O)cc1)c1nnc(C)n1-2` inactive
